# Species: Rattus norvegicus
# PROCEDURE DETAILS: Open TG-GATES - Regimen: Daily Repeat
# Type: toxicity, organism-based, Sprague-Dawley
# Design: regimen Daily Repeat, gender Male, age 6 weeks
# CONDITION CONTEXT: in vivo, po, 0 mg/kg, 72 h, tissue Plasma, route gavage, dose level Control, time 3 day
REPORTED METRIC: IP (mg/dL)

>>> print(df.to_string())
                                    molecule  reported_metric  test_result
 0  COc1ccc(Cc2nccc3cc(OC)c(OC)cc23)cc1OC [PAPAVERINE]               IP          7.2
 1  C[C@H](CS)C(=O)N1CCC[C@H]1C(=O)O [CAPTOPRIL]               IP          8.9
 2  NC(=O)N/N=C/c1ccc([N+](=O)[O-])o1 [NITROFURAZONE]               IP          7.9
 3  O=C(O)c1cc(/N=N/c2ccc(S(=O)(=O)Nc3ccccn3)cc2)ccc1O [SULFASALAZINE]               IP          7.3
 4  O=C(O)c1cn(C2CC2)c2cc(N3CCNCC3)c(F)cc2c1=O [CIPROFLOXACIN]               IP          7.9
 5           CCCC(CCC)C(=O)O [VALPROIC ACID]               IP            8
 6          CCc1cc(C(N)=S)ccn1 [ETHIONAMIDE]               IP          7.3
 7    Clc1ccccc1CN1CCc2sccc2C1 [TICLOPIDINE]               IP          8.6
 8  CN(C)CCC=C1c2ccccc2CCc2ccccc21 [AMITRIPTYLINE]               IP          7.9
 9  COc1ccc2c(c1)c(CC(=O)O)c(C)n2C(=O)c1ccc(Cl)cc1 [INDOMETHACIN]               IP          7.4
10  NC(=O)N1c2ccccc2C=Cc2ccccc21 [CARBAMAZEPINE]               IP          7.8
11  Cn1c(=O)c2[nH]cnc2n(C)c1=O.O [THEOPHYLLINE]               IP          8.5
12           CC(=O)Oc1ccccc1C(=O)O [ASPIRIN]               IP          7.1
13  CSc1ccc2c(c1)N(CCC1CCCCN1C)c1ccccc1S2 (centres undefined) [THIORIDAZINE]               IP          9.3
